# targetSystem: UniProtKB P31751
# test: Live cell target engagement by NanoBRET competitive probe displacement, AKT2
# measurementConditions: transfected HEK293 cells, 2 h at 37° C., read-out: AKT2 IC50: GeoMean IC50
Provide the recorded IC50 for the entries that follow.

Please give IC50, item by item, for the list that follows.
1. Nc1ncccc1-c1nc2ccc(-c3nccs3)nc2n1-c1ccc2c(c1)CC[C@@H]2NC(=O)c1ccc(O)c(C=O)c1 [Example 57]
2. Nc1ncccc1-c1nc2ccc(-c3ccccc3)nc2n1-c1ccc2c(c1)CC[C@@H]2NC(=O)c1cnn2ccc(O)c(C=O)c12 [Example 54]
3. C#Cc1ccc2nc(-c3cccnc3N)n(-c3ccc4c(c3)CC[C@@H]4NC(=O)c3ccc(O)c(C=O)c3)c2n1 [Example 50]

Result ::
1. 0.1 to 2 µM
2. 0.1 to 2 µM
3. ≥ 2 µM

* * *

For each of the molecules below, state its pIC50.
# targetSystem: AKT1 E17K (Homo sapiens, UniProt P31749, E17K)
# Sequence (P31749 whole entry E17K): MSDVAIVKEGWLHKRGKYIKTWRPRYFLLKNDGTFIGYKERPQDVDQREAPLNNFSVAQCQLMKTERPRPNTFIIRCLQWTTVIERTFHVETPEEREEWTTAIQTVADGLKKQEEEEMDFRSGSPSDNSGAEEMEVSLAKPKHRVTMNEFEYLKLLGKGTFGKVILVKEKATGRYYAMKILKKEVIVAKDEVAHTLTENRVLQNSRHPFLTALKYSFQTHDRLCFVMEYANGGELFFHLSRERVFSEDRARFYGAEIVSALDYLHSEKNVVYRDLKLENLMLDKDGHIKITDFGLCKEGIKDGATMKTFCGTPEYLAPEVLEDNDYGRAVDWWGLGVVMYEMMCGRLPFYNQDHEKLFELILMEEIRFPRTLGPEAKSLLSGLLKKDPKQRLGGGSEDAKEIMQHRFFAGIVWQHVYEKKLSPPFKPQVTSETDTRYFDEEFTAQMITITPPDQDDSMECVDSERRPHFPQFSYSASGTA
# test: Live cell target engagement by NanoBRET competitive probe displacement, AKT1 E17K
# measurementConditions: transfected HEK293 cells, 2 h at 37° C., read-out: AKT1 E17K IC50: GeoMean IC50
pIC50: −log10 of the molar value.

Example molecules with recorded pIC50:
Query :: Find the measured pIC50 of Nc1ncccc1-c1nc2ccc(-n3cccn3)nc2n1-c1ccc2c(c1)CC(F)[C@@H]2NC(=O)c1cc(C=O)c(O)cc1F (single isomer, unassigned) [Example 259] and report it.
Result :: 7.00 to 8.00

Query :: Identify measured pIC50 associated with Nc1ncccc1-c1nc2cc(F)c(-n3cccn3)nc2n1-c1ccc2c(c1)CC[C@@H]2NC(=O)c1ccc(O)c(C=O)c1 [Example 248]
Result :: 7.00 to 8.00

Query :: Fill in reported pIC50 for this entry: Nc1ncccc1-c1nc2cccnc2n1-c1ccc2c(c1)CC[C@@H]2NC(=O)c1ccc(O)c(C=O)c1 [Example 15]
Result :: 7.00 to 8.00

Query :: Return pIC50 (reported value) for this molecule: Cc1cnc(-c2ccc3nc(-c4cccnc4N)n(-c4ccc5c(c4)CC[C@@H]5NC(=O)c4ccc(O)c(C=O)c4)c3n2)s1 [Example 132]
Result :: > 8.00

Query :: Give the reported value of pIC50 for this record: Cc1cc(-n2cccn2)nc2c1nc(-c1cccnc1N)n2-c1ccc2c(c1)CC[C@@H]2n1cnc2cc(O)c(C=O)cc2c1=O [Example 220]
Result :: 5.70 to 7.00

More entries:
Query :: Give the reported pIC50 for this molecule. CN(C)S(=O)(=O)Nc1ccc(C(=O)N[C@H]2CCc3cc(-n4c(-c5cccnc5N)nc5ccc(-n6cccn6)nc54)ccc32)cc1C=O [Example 154]
Result :: > 8.00

* * *

# targetSystem: AKT2 (Homo sapiens, UniProt P31751)
# Sequence (P31751 whole entry): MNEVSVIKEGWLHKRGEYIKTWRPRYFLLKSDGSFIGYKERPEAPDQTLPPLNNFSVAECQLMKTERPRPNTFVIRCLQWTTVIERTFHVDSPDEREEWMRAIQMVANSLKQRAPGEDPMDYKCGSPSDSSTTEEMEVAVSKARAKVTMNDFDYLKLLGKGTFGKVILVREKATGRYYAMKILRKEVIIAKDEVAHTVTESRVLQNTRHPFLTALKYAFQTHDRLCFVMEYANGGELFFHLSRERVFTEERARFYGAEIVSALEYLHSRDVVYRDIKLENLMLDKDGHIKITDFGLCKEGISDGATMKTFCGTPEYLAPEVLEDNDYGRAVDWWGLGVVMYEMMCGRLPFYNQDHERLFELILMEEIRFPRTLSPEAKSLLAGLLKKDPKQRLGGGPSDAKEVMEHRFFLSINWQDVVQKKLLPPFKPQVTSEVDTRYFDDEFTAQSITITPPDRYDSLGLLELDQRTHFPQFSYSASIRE
# test: Live cell target engagement by NanoBRET competitive probe displacement, AKT2
# measurementConditions: transfected HEK293 cells, 2 h at 37° C., read-out: AKT2 IC50: GeoMean IC50
pIC50: −log10 of the molar value.
Provide the recorded pIC50 for the entries that follow.

Below, each entry is followed by its recorded pIC50 result.
Query :: // fetch pIC50 for CC1(NC(=O)c2ccc(O)c(C=O)c2)CCc2cc(-n3c(-c4cccnc4N)nc4ccc(-n5cccn5)nc43)ccc21 (stereo not shown) [Example 219] ; system: AKT2 (Homo sapiens, UniProt P31751)
Result :: 5.70 to 7.00

Query :: Report its pIC50 with AKT2 (Homo sapiens, UniProt P31751) as the test system: CC(=O)Nc1ccc(C(=O)N[C@H]2CCc3cc(-n4c(-c5cccnc5N)nc5ccc(-c6ccccc6)nc54)ccc32)cc1C=O [Example 14]
Result :: 7.00 to 8.00

Query :: For AKT2 (Homo sapiens, UniProt P31751), give pIC50 of the listed molecule: COc1cc(F)c(C(=O)N[C@H]2CCc3cc(-n4c(-c5cccnc5N)nc5ccc(-n6cccn6)nc54)ccc32)cc1C=O [Example 236]
Result :: 7.00 to 8.00

Could you tell me pIC50 for each of these molecules? They are listed below.
1. Nc1ncccc1-c1nc2ccc(N3CCOCC3)nc2n1-c1ccc2c(c1)CC[C@@H]2NC(=O)c1ccc(O)c(C=O)c1 [Example 42]
2. Nc1ncccc1-c1nc2ccc(-c3ccccc3)nc2n1-c1ccc2c(c1)C(=O)C[C@@H]2NC(=O)c1ccc(O)c(C=O)c1 [Example 74]
3. COc1cc(-n2cccn2)nc2c1nc(-c1cccnc1N)n2-c1ccc2c(c1)CC[C@@H]2NC(=O)c1ccc(O)c(C=O)c1 [Example 200]
4. Nc1ncccc1-c1nc2ccc(-c3cncnc3)nc2n1-c1ccc2c(c1)CC[C@@H]2NC(=O)c1ccc(O)c(C=O)c1 [Example 58]

Result ::
1. 5.70 to 7.00
2. 5.70 to 7.00
3. 5.70 to 7.00
4. 5.70 to 7.00

Parameters: items (list). Returns: pIC50 for each item.
1. Nc1ncccc1-c1nc2ccc(Br)nc2n1-c1ccc2c(c1)CC[C@@H]2NC(=O)c1ccc(O)c(C=O)c1 [Example 37]
2. Cn1ccc(-c2ccc3nc(-c4cccnc4N)n(-c4ccc5c(c4)CC[C@@H]5NC(=O)c4ccc(O)c(C=O)c4)c3n2)n1 [Example 59]
3. COc1cc(-n2cccn2)nc2c1nc(-c1cccnc1N)n2-c1ccc2c(c1)CC[C@@H]2NC(=O)c1cc(C=O)c(O)cc1F [Example 221]

Result ::
1. ≤ 5.70
2. 5.70 to 7.00
3. 5.70 to 7.00

Quick batch: pIC50 for everything below.
1. Cc1cnc(N)c(-c2nc3ccc(-n4cccn4)nc3n2-c2ccc3c(c2)CC[C@@H]3NC(=O)c2ccc(O)c(C=O)c2)c1 [Example 167]
2. [2H]C(=O)c1cc(C(=O)N[C@H]2CCc3cc(-n4c(-c5cccnc5N)nc5ccc(-n6cccn6)nc54)ccc32)c(F)c(F)c1O [Example 204]
3. Nc1ncccc1-c1nc2ccc(-n3ccc(CO)n3)nc2n1-c1ccc2c(c1)CC[C@@H]2NC(=O)c1ccc(O)c(C=O)c1 [Example 127]

Result ::
5.70 to 7.00
7.00 to 8.00
5.70 to 7.00

* * *

Provide the recorded pIC50 for the entries that follow.
# targetSystem: AKT1 E17K (Homo sapiens, UniProt P31749, E17K)
# test: Live cell target engagement by NanoBRET competitive probe displacement, AKT1 E17K
# measurementConditions: transfected HEK293 cells, 2 h at 37° C., read-out: AKT1 E17K IC50: GeoMean IC50
pIC50: −log10 of the molar value.

Example results:
Query :: Answer with the recorded pIC50 of `Nc1ncccc1-c1nc2ccc(-c3cn[nH]c3)nc2n1-c1ccc2c(c1)CC[C@@H]2NC(=O)c1ccc(O)c(C=O)c1` only.
Result :: 5.70 to 7.00

Query :: State its pIC50: `Nc1ncccc1-c1nc2ccc(-n3cccn3)nc2n1-c1ccc2c(c1)CC[C@@H]2NC(=O)c1ccc(O)c(C=O)c1`
Result :: 7.00 to 8.00

Query :: Return pIC50 for the following compound: `Nc1ncccc1-c1nc2ccc(-n3cccn3)nc2n1-c1cc(F)c2c(c1)CC[C@@H]2NC(=O)c1ccc(O)c(C=O)c1`
Result :: 5.70 to 7.00

Query :: Give the reported pIC50 for this compound. `CSc1ccn(-c2ccc3nc(-c4cccnc4N)n(-c4ccc5c(c4)CC[C@@H]5NC(=O)c4ccc(O)c(C=O)c4)c3n2)n1`
Result :: 7.00 to 8.00

Query :: In one line, give reported pIC50 of the entry `COc1cc2nc(-c3cccnc3N)n(-c3ccc4c(c3)CC[C@@H]4NC(=O)c3ccc(O)c(C=O)c3)c2nc1-n1cccn1` .
Result :: 7.00 to 8.00

Query :: # return recorded pIC50 for entry `COc1cc(-n2cccn2)nc2c1nc(-c1cccnc1N)n2-c1ccc2c(c1)CC[C@@H]2NC(=O)c1cc(C=O)c(O)c(F)c1F`
Result :: 7.00 to 8.00

Query :: Please give measured pIC50 of the following entry: `Nc1ncccc1-c1nc2ccc(-n3cc(C(F)F)cn3)nc2n1-c1ccc2c(c1)CC[C@@H]2NC(=O)c1ccc(O)c(C=O)c1`
Result :: 7.00 to 8.00

Query :: Please look at this compound and report its pIC50: `N#Cc1cc(-n2cccn2)nc2c1nc(-c1cccnc1N)n2-c1ccc2c(c1)CC[C@@H]2NC(=O)c1ccc(O)c(C=O)c1`
Result :: 7.00 to 8.00

Please supply pIC50 for each of the following items, keeping them in order.
1. Nc1ncccc1-c1nc2ccc(-c3ccccc3)nc2n1-c1ccc2c(c1)CC[C@@H]2NCCc1ccc(C=O)c(O)c1
2. CS(=O)(=O)Nc1ncc(C(=O)N[C@H]2CCc3cc(-n4c(-c5cccnc5N)nc5ccc(-n6cccn6)nc54)ccc32)cc1C=O
3. [2H]C(=O)c1cc(C(=O)N[C@H]2CCc3cc(-n4c(-c5cccnc5N)nc5ccc(-n6cccn6)nc54)ccc32)c(F)c(F)c1O
4. Nc1ncccc1-c1nc2ccc(-n3cccn3)nc2n1-c1ccc2c(c1)CC(F)(F)[C@@H]2NC(=O)c1ccc(O)c(C=O)c1

Result ::
1. 7.00 to 8.00
2. 5.70 to 7.00
3. > 8.00
4. 7.00 to 8.00

Query :: Provide measured pIC50 value, entry: `Cn1ccc(-c2ccc3nc(-c4cccnc4N)n(-c4ccc5c(c4)CC[C@@H]5NC(=O)c4ccc(O)c(C=O)c4)c3n2)n1`
Result :: 7.00 to 8.00
